# methodDescription: self-splicing fitness, log relative to wild type (ln ratio); higher = more splicing; Tetrahymena group I intron in knt gene, E. coli kanamycin selection, DiMSum; sequences stand for … in CUCUCU…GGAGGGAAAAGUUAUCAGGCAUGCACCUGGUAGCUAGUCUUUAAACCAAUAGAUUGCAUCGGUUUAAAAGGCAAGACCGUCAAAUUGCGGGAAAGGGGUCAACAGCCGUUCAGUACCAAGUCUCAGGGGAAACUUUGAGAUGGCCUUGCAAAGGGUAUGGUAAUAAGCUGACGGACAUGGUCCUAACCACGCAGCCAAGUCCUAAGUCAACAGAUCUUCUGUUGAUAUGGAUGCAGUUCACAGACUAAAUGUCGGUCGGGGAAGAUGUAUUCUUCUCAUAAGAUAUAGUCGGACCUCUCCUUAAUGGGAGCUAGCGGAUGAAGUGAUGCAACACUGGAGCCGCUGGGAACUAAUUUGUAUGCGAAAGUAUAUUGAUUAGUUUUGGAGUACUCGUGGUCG;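 also: selection with 25 µg/mL kanamycin versus none on LB agar overnight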
# experimentalParameters: 30 °C
propertyMeasured: self-splicing fitness (ln)

| querySequence | self-splicing fitness (ln) |
| --- | --- |
| CGCCAGCAAUAUUACGAUCG | -0.715 |
| CAGCAGCAAUAUUACGAUUA | -1.77 |
| CCUGAGCAAUAUUACGUUAU | -3.15 |
| GUUCAGCAAUAUUACGCCUC | -0.427 |

Hi, could you look up self-splicing fitness (ln) for each item in my list?
1. GGGCAGCAAUAUUACGGAAG
2. AUAUAGCAAUAUUACGAACA
3. UGGCAGCAAUAUUACGCUUU
4. GAGGAGCAAUAUUACGCCAU
5. AUCGAGCAAUAUUACGGCAU
6. GGGGAGCAAUAUUACGUUUA
7. GGCAAGCAAUAUUACGGUUG

Result:
-3.03
-0.789
-1.24
-3.46
-0.455
-2.13
-1.16

// each listed sequence needs a value for self-splicing fitness (ln)
1. CGCAAGCAAUAUUACGAGGC
2. CAGCAGCAAUAUUACGCCCG
3. CGUUAGCAAUAUUACGGAAA

Result:
1: -2.71; 2: 0.0522; 3: -1.93
